VALUE KIND: melting point

Name the recorded melting point of the item Cc1cccc(CN2C(=O)c3cc(-c4nc(Nc5ccnc(NCCCNC(=O)CCCCCCCCCNc6cccc7c6C(=O)N(C6CCC(=O)NC6=O)C7=O)c5)ncc4C)cn3C[C@H]2C)n1 (some centres unmarked) [Compound B1-10N] in your answer.
110 to 111 °C

Name the recorded melting point of the item "Cc1cccc(CN2C(=O)c3cc(-c4nc(Nc5ccnc(C#CCCNC(=O)CCCCCCCCC(=O)N[C@H](C(=O)N6C[C@H](O)C[C@H]6C(=O)N[C@@H](C)c6ccc(-c7scnc7C)cc6)C(C)(C)C)c5)ncc4C)cn3C[C@H]2C)n1" in your answer.
144 to 145 °C

Name the recorded melting point of the item Cc1cccc(CN2C(=O)c3cc(-c4nc(Nc5ccnc(C#CCCN6CCN(CCCCCCCCCC(=O)N[C@H](C(=O)N7C[C@H](O)C[C@H]7C(=O)N[C@@H](C)c7ccc(-c8scnc8C)cc7)C(C)(C)C)CC6)c5)ncc4C)cn3C[C@H]2C)n1 [Compound B2-12P] in your answer.
145 to 146 °C

Name the recorded melting point of the item "Cc1cccc(CN2C(=O)c3cc(-c4nc(Nc5ccnc(C#CCCNC(=O)CCCCCCCCCCCCC(=O)N[C@H](C(=O)N6C[C@H](O)C[C@H]6C(=O)N[C@@H](C)c6ccc(-c7scnc7C)cc6)C(C)(C)C)c5)ncc4C)cn3C[C@H]2C)n1" in your answer.
128 to 129 °C

Name the recorded melting point of the item "Cc1cccc(CN2C(=O)c3cc(-c4nc(Nc5ccnc(C#CCCNC(=O)CCCCCCCCCCC(=O)N[C@H](C(=O)N6C[C@H](O)C[C@H]6C(=O)N[C@@H](C)c6ccc(-c7scnc7C)cc6)C(C)(C)C)c5)ncc4C)cn3C[C@H]2C)n1" in your answer.
143 to 144 °C

---

- System: HCT116 cells
- ASSAY EXPLANATION: Cell proliferation (CCK8) assay, HCT116
- Type: cell-based, human
- CONDITION DETAILS: HCT116, 72 h, read-out: IC50 (growth inhibition, cytotoxicity)
VALUE KIND: IC50 (nM)
Dear colleague, please return just the value in nM, with no unit written.

Name the recorded IC50 of the item Cc1cccc(CN2C(=O)c3cc(-c4nc(Nc5ccnc(C#CCCN(C)CCCCCCCCCCNc6cccc7c6C(=O)N(C6CCC(=O)NC6=O)C7=O)c5)ncc4C)cn3C[C@H]2C)n1 (stereo partly shown) [Compound B1-10J] in your answer.
2100
